system: Human T cell acute lymphoblastic leukemia cell (CCRF-CEM); test: Tumor cell proliferation inhibition (CellTiter-Meiluncell luminescent cell viability assay); conditions: 96 h, read-out: Inhibition Rate at 500 nM (%)
reported-property: inhibition at 0.5 µM

Please indicate recorded inhibition at 0.5 µM of O=C1CCC(N2Cc3cc(CN4CCC(c5cccc(F)c5F)CC4)ccc3C2=S)C(=O)N1 (centres unmarked) measured with Human T cell acute lymphoblastic leukemia cell (CCRF-CEM).
80 to 100%

Please indicate recorded inhibition at 0.5 µM of Cc1cc(C2CCN(Cc3ccc4c(c3)CN(C3CCC(=O)NC3=O)C4=S)CC2)cs1 (centres unmarked) measured with Human T cell acute lymphoblastic leukemia cell (CCRF-CEM).
80 to 100%

Please indicate recorded inhibition at 0.5 µM of O=C1CCC(N2Cc3cc(CN4CCC(N(c5ccccc5)c5ccccn5)CC4)ccc3C2=S)C(=O)N1 (centres unmarked) measured with Human T cell acute lymphoblastic leukemia cell (CCRF-CEM).
80 to 100%

Please indicate recorded inhibition at 0.5 µM of O=C1CCC(N2Cc3cc(CN4CC=C(c5cccs5)CC4)ccc3C2=S)C(=O)N1 (centres unmarked) measured with Human T cell acute lymphoblastic leukemia cell (CCRF-CEM).
80 to 100%

Please indicate recorded inhibition at 0.5 µM of O=C1CCC(N2Cc3cc(CN4CC=C(c5ccsc5)CC4)ccc3C2=S)C(=O)N1 (centres unmarked) measured with Human T cell acute lymphoblastic leukemia cell (CCRF-CEM).
80 to 100%

Please indicate recorded inhibition at 0.5 µM of O=C1CCC(N2Cc3cc(CN4CC=C(c5ccoc5)CC4)ccc3C2=S)C(=O)N1 (centres unmarked) measured with Human T cell acute lymphoblastic leukemia cell (CCRF-CEM).
80 to 100%

Please indicate recorded inhibition at 0.5 µM of Cc1ccc(Sc2ccccc2N2CCN(Cc3cccc4c3CN(C3CCC(=O)NC3=O)C4=S)CC2)c(C)c1 (centres unmarked) measured with Human T cell acute lymphoblastic leukemia cell (CCRF-CEM).
80 to 100%

Please indicate recorded inhibition at 0.5 µM of O=C1CCC(N2Cc3cc(CN4CC=C(c5cccc(F)c5Cl)CC4)ccc3C2=S)C(=O)N1 (centres unmarked) measured with Human T cell acute lymphoblastic leukemia cell (CCRF-CEM).
80 to 100%

Please indicate recorded inhibition at 0.5 µM of Cc1cc(C2=CCN(Cc3ccc4c(c3)CN(C3CCC(=O)NC3=O)C4=S)CC2)cs1 (centres unmarked) measured with Human T cell acute lymphoblastic leukemia cell (CCRF-CEM).
80 to 100%

Please indicate recorded inhibition at 0.5 µM of O=C1CCC(N2Cc3cc(CN4CCN(c5ccccc5)CC4)ccc3C2=S)C(=O)N1 (centres unmarked) measured with Human T cell acute lymphoblastic leukemia cell (CCRF-CEM).
60 to 70%

Please indicate recorded inhibition at 0.5 µM of O=C1CCC(N2Cc3cc(CN4CCC(c5cccc(F)c5Cl)CC4)ccc3C2=S)C(=O)N1 (centres unmarked) measured with Human T cell acute lymphoblastic leukemia cell (CCRF-CEM).
80 to 100%

Please indicate recorded inhibition at 0.5 µM of O=C1CCC(N2Cc3cc(CN4CCC(c5ccsc5)CC4)ccc3C2=S)C(=O)N1 (centres unmarked) measured with Human T cell acute lymphoblastic leukemia cell (CCRF-CEM).
80 to 100%

Please indicate recorded inhibition at 0.5 µM of O=C1CCC(N2Cc3cc(CN4CCC(c5cccs5)CC4)ccc3C2=S)C(=O)N1 (centres unmarked) measured with Human T cell acute lymphoblastic leukemia cell (CCRF-CEM).
80 to 100%

Please indicate recorded inhibition at 0.5 µM of Nc1cccc2c1CN(C1CCC(=O)NC1=O)C2=O (centres unmarked) [lenalidomide, reference compound] measured with Human T cell acute lymphoblastic leukemia cell (CCRF-CEM).
10 to 20%

Please indicate recorded inhibition at 0.5 µM of COc1ccccc1N1CCN(Cc2cccc3c2CN(C2CCC(=O)NC2=O)C3=S)CC1 (centres unmarked) measured with Human T cell acute lymphoblastic leukemia cell (CCRF-CEM).
40 to 50%

Please indicate recorded inhibition at 0.5 µM of Nc1cccc2c1C(=O)N(C1CCC(=O)NC1=O)C2=O (centres unmarked) [pomalidomide, reference compound] measured with Human T cell acute lymphoblastic leukemia cell (CCRF-CEM).
0 to 5%

Please indicate recorded inhibition at 0.5 µM of O=C1CCC(N2Cc3cc(CN4CCN(Cc5ccccc5-c5ccc(Cl)cc5)CC4)ccc3C2=S)C(=O)N1 (centres unmarked) measured with Human T cell acute lymphoblastic leukemia cell (CCRF-CEM).
80 to 100%

----------
molecular target: human Cereblon WT GST-tagged protein (Homo sapiens); construct: purchased CISBIO 64BDCRBNPEH; assay: CRBN-binding affinity, HTRF (CEREBLON BINDING kit); settings: read-out: Inhibition Rate at 0.5 µM (%)
Sequence (Q96SW2 whole entry): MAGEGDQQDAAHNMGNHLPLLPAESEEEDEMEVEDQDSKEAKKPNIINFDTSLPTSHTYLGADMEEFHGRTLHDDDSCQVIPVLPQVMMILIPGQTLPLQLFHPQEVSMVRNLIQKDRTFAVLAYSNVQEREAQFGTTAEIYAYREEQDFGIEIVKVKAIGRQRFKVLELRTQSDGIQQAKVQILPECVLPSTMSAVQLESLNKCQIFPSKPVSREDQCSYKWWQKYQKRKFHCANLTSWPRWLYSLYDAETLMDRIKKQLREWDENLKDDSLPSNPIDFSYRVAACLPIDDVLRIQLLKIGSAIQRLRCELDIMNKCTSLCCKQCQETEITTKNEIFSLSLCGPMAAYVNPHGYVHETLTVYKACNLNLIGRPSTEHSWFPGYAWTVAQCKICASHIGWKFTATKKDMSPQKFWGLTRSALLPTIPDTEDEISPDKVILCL
reported-property: inhibition at 0.5 µM

Identify measured inhibition at 0.5 µM corresponding to O=C1CCC(N2Cc3cc(CN4CC=C(c5ncccc5F)CC4)ccc3C2=S)C(=O)N1 (centres unmarked)
80 to 100%

Identify measured inhibition at 0.5 µM corresponding to O=C1CCC(N2Cc3c(CN4CC(N5CCc6cc(F)ccc65)C4)cccc3C2=S)C(=O)N1 (centres unmarked)
80 to 100%

Identify measured inhibition at 0.5 µM corresponding to O=C1CCC(N2Cc3c(CN4CCN(C(c5ccccc5)c5ccncc5)CC4)cccc3C2=S)C(=O)N1 (centres unmarked)
40 to 53%

Identify measured inhibition at 0.5 µM corresponding to O=C1CCC(N2Cc3cc(CN4CCN(c5cncc(Cl)c5Cl)CC4)ccc3C2=S)C(=O)N1 (centres unmarked)
60 to 80%

Identify measured inhibition at 0.5 µM corresponding to O=C1CCC(N2Cc3cc(CN4CC=C(c5ccoc5)CC4)ccc3C2=S)C(=O)N1 (centres unmarked)
60 to 80%

Identify measured inhibition at 0.5 µM corresponding to O=C1CCC(N2Cc3cc(CN4CCN(c5ncnc6sc7c(c56)CCCC7)CC4)ccc3C2=S)C(=O)N1 (centres unmarked)
53 to 60%

Identify measured inhibition at 0.5 µM corresponding to Cc1ccc(C2CCN(Cc3cccc4c3CN(C3CCC(=O)NC3=O)C4=S)CC2)s1 (centres unmarked)
53 to 60%

Identify measured inhibition at 0.5 µM corresponding to O=C1CCC(N2Cc3c(CN4CCC(N(c5ccccc5)c5ccccc5)CC4)cccc3C2=S)C(=O)N1 (centres unmarked)
60 to 80%

----------
Assignment: determine reported IC50 for the given compounds.
biological target: human Cereblon WT GST-tagged protein (Homo sapiens); construct: purchased CISBIO 64BDCRBNPEH; experiment: CRBN-binding affinity, HTRF (CEREBLON BINDING kit); conditions: CRBN binding, HTRF, 3 hours at room temperature; read-out: HTRF IC50

Please indicate recorded IC50 of O=C1CCC(N2Cc3cc(CO)ccc3C2=S)C(=O)N1 (centres unmarked) [GT-06977] measured with human Cereblon WT GST-tagged protein (Homo sapiens).
< 100 nM

Please indicate recorded IC50 of O=C1CCC(N2Cc3cc(CN4C5CC4CN(c4cccc(Cl)c4Cl)C5)ccc3C2=S)C(=O)N1 (centres unmarked) [GT-05182] measured with human Cereblon WT GST-tagged protein (Homo sapiens).
100 to 500 nM

Please indicate recorded IC50 of O=C1CCC(N2Cc3ccc(CO)cc3C2=S)C(=O)N1 (centres unmarked) [GT-05566] measured with human Cereblon WT GST-tagged protein (Homo sapiens).
100 to 500 nM

Please indicate recorded IC50 of O=C1CCC(N2Cc3cc(CN4CCn5c(nnc5C(F)(F)F)C4)ccc3C2=S)C(=O)N1 (centres unmarked) [GT-05090] measured with human Cereblon WT GST-tagged protein (Homo sapiens).
100 to 500 nM

Please indicate recorded IC50 of O=C1CCC(N2Cc3ccc(CN4CCC(c5noc6cc(F)ccc56)CC4)cc3C2=S)C(=O)N1 (centres unmarked) [GT-05031] measured with human Cereblon WT GST-tagged protein (Homo sapiens).
100 to 500 nM

Please indicate recorded IC50 of Cc1ccc(C2CCN(Cc3ccc4c(c3)CN(C3CCC(=O)NC3=O)C4=S)CC2)s1 (centres unmarked) [GT-05112] measured with human Cereblon WT GST-tagged protein (Homo sapiens).
100 to 500 nM

Please indicate recorded IC50 of O=C1CCC(N2Cc3cc(CN4CCN(c5cccc6sccc56)CC4)ccc3C2=S)C(=O)N1 (centres unmarked) [GT-05088] measured with human Cereblon WT GST-tagged protein (Homo sapiens).
100 to 500 nM

Please indicate recorded IC50 of Cc1cscc1N1CCN(Cc2ccc3c(c2)CN(C2CCC(=O)NC2=O)C3=S)CC1 (centres unmarked) [GT-05113] measured with human Cereblon WT GST-tagged protein (Homo sapiens).
< 100 nM

----------
Assignment: determine reported inhibition at 0.5 µM for the given compounds.
molecular target: human Cereblon WT GST-tagged protein (Homo sapiens); construct: purchased CISBIO 64BDCRBNPEH; test: CRBN-binding affinity, HTRF (CEREBLON BINDING kit); settings: read-out: Inhibition Rate at 0.5 µM (%)

Identify measured inhibition at 0.5 µM corresponding to O=C1CCC(N2Cc3cc(CN4CCN(c5ncc(Cl)cc5Cl)CC4)ccc3C2=S)C(=O)N1 (stereo not drawn)
60 to 80%

Identify measured inhibition at 0.5 µM corresponding to O=C1CCC(N2Cc3c(CN4CCc5sccc5C4)cccc3C2=S)C(=O)N1 (stereo not drawn)
60 to 80%

Identify measured inhibition at 0.5 µM corresponding to O=C1CCC(N2Cc3c(CN4CCN(c5ccc(Cl)cn5)CC4)cccc3C2=S)C(=O)N1 (stereo not drawn)
40 to 53%

Identify measured inhibition at 0.5 µM corresponding to O=C1CCC(N2Cc3c(CN4CCN(c5nccc(Cl)c5F)CC4)cccc3C2=S)C(=O)N1 (stereo not drawn)
60 to 80%

Identify measured inhibition at 0.5 µM corresponding to O=C1CCC(N2Cc3cc(CN4CCC(c5ccccc5)CC4)ccc3C2=S)C(=O)N1 (stereo not drawn)
53 to 60%

Identify measured inhibition at 0.5 µM corresponding to O=C1CCC(N2Cc3c(CN4CCN(c5ccc(Cl)nn5)CC4)cccc3C2=S)C(=O)N1 (stereo not drawn)
60 to 80%

Identify measured inhibition at 0.5 µM corresponding to O=C1CCC(N2Cc3cc(CN4CCN(c5ccc(C(F)(F)F)cn5)CC4)ccc3C2=S)C(=O)N1 (stereo not drawn)
60 to 80%

Identify measured inhibition at 0.5 µM corresponding to O=C1CCC(N2Cc3cc(CN4CCN(c5cc(Cl)ccn5)CC4)ccc3C2=S)C(=O)N1 (stereo not drawn)
60 to 80%

Identify measured inhibition at 0.5 µM corresponding to Cc1cc2c(C3=CCN(Cc4ccc5c(c4)CN(C4CCC(=O)NC4=O)C5=S)CC3)ncnc2s1 (stereo not drawn)
60 to 80%

Identify measured inhibition at 0.5 µM corresponding to O=C1CCC(N2Cc3c(CN4CCC(c5ncc6ccsc6n5)CC4)cccc3C2=S)C(=O)N1 (stereo not drawn)
60 to 80%

Identify measured inhibition at 0.5 µM corresponding to O=C1CCC(N2Cc3cc(CN4CCN(c5ncnc6sccc56)CC4)ccc3C2=S)C(=O)N1 (stereo not drawn)
80 to 100%

Identify measured inhibition at 0.5 µM corresponding to Cc1cc(N2CCN(Cc3cccc4c3CN(C3CCC(=O)NC3=O)C4=S)CC2)ccn1 (stereo not drawn)
53 to 60%

Identify measured inhibition at 0.5 µM corresponding to O=C1CCC(N2Cc3c(CN4CCN(c5ccncc5Br)CC4)cccc3C2=S)C(=O)N1 (stereo not drawn)
60 to 80%

Identify measured inhibition at 0.5 µM corresponding to O=C1CCC(N2Cc3cc(CN4CCN(C(=O)C5=C(c6ccc(F)cc6)CCCC5)CC4)ccc3C2=S)C(=O)N1 (stereo not drawn)
60 to 80%

Identify measured inhibition at 0.5 µM corresponding to O=C1CCC(N2Cc3c(CN4CCN(c5ncc6ccsc6n5)CC4)cccc3C2=S)C(=O)N1 (stereo not drawn)
60 to 80%

Identify measured inhibition at 0.5 µM corresponding to O=C1CCC(N2Cc3c(CN4CCC(c5ccsc5)CC4)cccc3C2=S)C(=O)N1 (stereo not drawn)
40 to 53%

Identify measured inhibition at 0.5 µM corresponding to O=C1CCC(N2Cc3cc(CN4CCC(c5c[nH]c6ncccc56)CC4)ccc3C2=S)C(=O)N1 (stereo not drawn)
53 to 60%

Identify measured inhibition at 0.5 µM corresponding to O=C1CCC(N2Cc3cc(CN4CC=C(c5cccs5)CC4)ccc3C2=S)C(=O)N1 (stereo not drawn)
60 to 80%

Identify measured inhibition at 0.5 µM corresponding to O=C1CCC(N2Cc3c(CN4CCN(c5cncc(Cl)c5Cl)CC4)cccc3C2=S)C(=O)N1 (stereo not drawn)
60 to 80%

Identify measured inhibition at 0.5 µM corresponding to O=C1CCC(N2Cc3c(CN4CCN(c5c(F)cccc5F)CC4)cccc3C2=S)C(=O)N1 (stereo not drawn)
53 to 60%

Identify measured inhibition at 0.5 µM corresponding to O=C1CCC(N2Cc3cc(CN4CCN(c5ncnc(Cl)c5Cl)CC4)ccc3C2=S)C(=O)N1 (stereo not drawn)
60 to 80%

Identify measured inhibition at 0.5 µM corresponding to O=C1CCC(N2Cc3c(CN4CCN(c5noc6ccncc56)CC4)cccc3C2=S)C(=O)N1 (stereo not drawn)
53 to 60%

Identify measured inhibition at 0.5 µM corresponding to O=C1CCC(N2Cc3c(CN4CCN(c5ccnc(Cl)c5Cl)CC4)cccc3C2=S)C(=O)N1 (stereo not drawn)
60 to 80%

Identify measured inhibition at 0.5 µM corresponding to Cc1ccc(C2=CCN(Cc3cccc4c3CN(C3CCC(=O)NC3=O)C4=S)CC2)s1 (stereo not drawn)
53 to 60%

Identify measured inhibition at 0.5 µM corresponding to O=C1CCC(N2Cc3c(CN4CCN(c5cccc6sccc56)CC4)cccc3C2=S)C(=O)N1 (stereo not drawn)
40 to 53%

Identify measured inhibition at 0.5 µM corresponding to Cc1ccsc1C1CCN(Cc2cccc3c2CN(C2CCC(=O)NC2=O)C3=S)CC1 (stereo not drawn)
40 to 53%

Identify measured inhibition at 0.5 µM corresponding to O=C1CCC(N2Cc3c(CN4CCC(c5ccnc(F)c5F)CC4)cccc3C2=S)C(=O)N1 (stereo not drawn)
60 to 80%

Identify measured inhibition at 0.5 µM corresponding to O=C1CCC(N2Cc3cc(CN4CCN(c5nc(N6CCOCC6)nc6c5SCC6)CC4)ccc3C2=S)C(=O)N1 (stereo not drawn)
60 to 80%

Identify measured inhibition at 0.5 µM corresponding to O=C1CCC(N2Cc3c(CN4C[C@@H]5C[C@H]4CN5c4cccc(Cl)c4Cl)cccc3C2=S)C(=O)N1 (stereo partly drawn)
40 to 53%

Identify measured inhibition at 0.5 µM corresponding to O=C1CCC(N2Cc3c(CN4CC=C(c5c[nH]c6ncccc56)CC4)cccc3C2=S)C(=O)N1 (stereo not drawn)
60 to 80%

Identify measured inhibition at 0.5 µM corresponding to Cc1nc(C2=CCN(Cc3cccc4c3CN(C3CCC(=O)NC3=O)C4=S)CC2)c2c(-c3ccccc3)csc2n1 (stereo not drawn)
60 to 80%

Identify measured inhibition at 0.5 µM corresponding to Cc1nc(C2=CCN(Cc3cccc4c3CN(C3CCC(=O)NC3=O)C4=S)CC2)c2ccsc2n1 (stereo not drawn)
60 to 80%

Identify measured inhibition at 0.5 µM corresponding to O=C1CCC(N2Cc3cc(CN4CC=C(c5n[nH]c6cc(F)ccc56)CC4)ccc3C2=S)C(=O)N1 (stereo not drawn)
60 to 80%
